assay.target: human polyclonal IgG (Gammanorm) (human)
experiment: SPR (Biacore), retained IgG binding capacity after 96 NaOH cycles against reference Domain 3
quantity.kind: Sample/ref. ratio

- binder: "D3(N10Q, N45A)1 (designed binder) PKEEVTIKAQLIYADGKTQTAEFKGTFEEATAEAYRYADLLAKEAGKYTVDVADKGYTLNIKFAGKEKTPEE"
  quantity.kind: "Sample/ref. ratio"
  reported.result: 1.55
- binder: "D3(N45A)1 (designed binder) PKEEVTIKANLIYADGKTQTAEFKGTFEEATAEAYRYADLLAKEAGKYTVDVADKGYTLNIKFAGKEKTPEE"
  quantity.kind: "Sample/ref. ratio"
  reported.result: 1.42
- binder: "Domain 4 (D4) (protein) AQVPKEEVTIKANLIYADGKTQTAEFKGTFAEATAEAYRYADLLAKENGKYTADLEDGGYTINIRFAGKKVDEKPEEC"
  quantity.kind: "Sample/ref. ratio"
  reported.result: 0.84
